Source listed as patent US12018066.

molecular target: SARS-CoV-2 spike protein receptor binding domain (RBD2) (SARS-CoV-2, UniProt P0DTC2 319-537); assay: flow cytometry, yeast-displayed scFv, titration of biotinylated antigen
QUANTITY MEASURED: pKd
Reminder that pKd means the negative base-10 logarithm of the concentration expressed in mol/L.

Identify pKd associated with the binder G07 scFv (scFv) scFv: QSVLIQPPSASGTPGQRVTISCSGSNSNFGSNSVSWYQQRPGTAPKLLIEGNNQRPSGVPERFSGSKSGTSASLAISGLQSEDEAEYSCASWDDSLNAFVFGPGTKLTVLSGGSAITSYNVYYTKLSSSGTQVQLVQSGAEVKKPGESLKISCKGSGYSFTSYWIGWVRQMPGKGLEWMGIIYPGDSDIRYSPSFQGQVTISADKSFSSAYLQWSSLKASDTAMYYCARLGATGAFDIWGQGTTVTVSS
7.22
